# Tested on: EPHA7
# measurementContext: concentration: 1 μM,replicates: in singlicate; n = 1;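 also: KINOMEscan kinase panel screen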
measuredProperty: %Inh (%)
Supply the numeric figure in %, leaving out any unit text.

Answered examples (3):
> print(dat)
                                   compound  measuredproperty  unitofmeasure  observedresult
1            CCn1c(-c2nonc2N)nc2cncc(Br)c21              %Inh              %               0
2  N#Cc1cccc(C(=O)NC2CCN(c3ccnc(Nc4ccc(F)cc4)n3)C2)c1 (stereo not drawn)              %Inh              %               0
3  CS(=O)(=O)c1cccc(CNc2nc(Nc3ccc4c(c3)[C@@H]3C[C@@H]4CNC3=O)ncc2C(F)(F)F)c1              %Inh              %              63

[Q] Please indicate %Inh recorded for CC(C)S(=O)(=O)N1CCN(Cc2ccc3c(c2)nc(NC(=O)c2ccsc2)n3C[C@H](O)c2ccccc2)CC1
[A] 10

[Q] Please indicate %Inh recorded for Cc1ccn2nc(-c3ccc(F)cc3)c(-c3ccncc3)c2c1.Cl
[A] 0

[Q] Please indicate %Inh recorded for Cn1ccc2ncnc(Oc3ccc(NC(=O)Nc4cccc(C(F)(F)F)c4)c(F)c3)c21
[A] 93.8

###

# Tested on: EPHB4
# measurementContext: concentration: 1 μM,replicates: in singlicate; n = 1
Recorded %Inh by entry
Supply the numeric figure in %, leaving out any unit text.

Answered examples (8):
> print(dat)
                                   compound  observedresult
1  CN(c1cccc(CNc2nc(Nc3ccc4c(c3)CC(=O)N4)ncc2C(F)(F)F)c1)S(C)(=O)=O               5
2  Cc1cccc(-c2nc(Nc3ccncc3)c3sccc3n2)n1 [GW869641]               0
3  Nc1nccc(-c2ccc3c(N)n[nH]c3c2)n1 [GSK1034945]               6
4  O=c1[nH]cc(-c2ccc(O)cc2)c2sc(-c3ccncc3)cc12 [GSK1033723]              13
5  OCCn1cc(-c2cnc3nnn(Cc4ccc5ncccc5c4)c3n2)cn1               0
6  Cc1ccc(C(=O)Nc2ccc(Oc3ccc4nc(NC(=O)C5CC5)cn4c3)c(F)c2)c(=O)n1-c1ccccc1              75
7  NC(=O)Nc1sc(-c2ccc(F)cc2)cc1C(N)=O [GW789449]              20
8  Cl.Nc1n[nH]c2cc(-c3ccccn3)ccc12 [GSK2189892]               0

// switching to the query compound
[Q] Please indicate %Inh recorded for COc1cccc(CNC(=O)NC2CCN(c3ccnc(Nc4cc(OC)c(OC)c(OC)c4)n3)C2)c1 (stereo not drawn) [GSK1379765]
[A] 8

###

# Test system: CAMKK1
# measurementContext: concentration: 1 μM,replicates: in singlicate; n = 1
Recorded %Inh by entry
Supply the numeric figure in %, leaving out any unit text.

Answered examples (2):
> print(dat)
                               linenotation  observedresult
1  CSc1nccc(-c2c(-c3ccc(F)cc3)ncn2CCCN2CCOCC2)n1.Cl               0
2  O=C(Nc1ccc(Oc2ccc3nc(NC(=O)C4CC4)cn3n2)c(F)c1)c1cccn(-c2ccccc2)c1=O              11

[Q] Please indicate %Inh recorded for FC(F)(F)c1cc(Br)cc(Nc2nccc(-c3cnn4ncccc34)n2)c1
[A] 45

[Q] Please indicate %Inh recorded for O=C(Nc1ccccc1)c1cccc(Oc2ccc3nccn3n2)c1
[A] 6

[Q] Please indicate %Inh recorded for NC(=O)c1ccc(-c2cc3ncnc(SCC(=O)O)c3s2)cc1
[A] 75
